These entries and their values trace back to ChEMBL document CHEMBL3608222.

- measured_on: Oxysterols receptor LXR-beta (Homo sapiens) (UniProt P55055)
- Sequence (P55055 whole entry): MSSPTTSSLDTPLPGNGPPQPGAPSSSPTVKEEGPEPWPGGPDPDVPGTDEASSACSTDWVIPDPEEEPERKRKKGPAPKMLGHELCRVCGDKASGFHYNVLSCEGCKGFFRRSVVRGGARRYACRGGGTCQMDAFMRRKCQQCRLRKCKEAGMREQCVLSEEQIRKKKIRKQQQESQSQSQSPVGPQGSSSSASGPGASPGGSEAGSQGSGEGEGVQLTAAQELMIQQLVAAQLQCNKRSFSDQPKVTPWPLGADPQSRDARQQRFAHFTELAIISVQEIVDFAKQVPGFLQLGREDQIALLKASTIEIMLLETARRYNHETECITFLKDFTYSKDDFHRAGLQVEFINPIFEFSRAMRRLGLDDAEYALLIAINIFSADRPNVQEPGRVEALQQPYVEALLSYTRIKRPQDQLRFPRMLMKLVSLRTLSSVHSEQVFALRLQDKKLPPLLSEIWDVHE
- assay_text: Agonist activity at human LXRbeta expressed in African green monkey kidney CV1 cells co-expressing pTAL-LXRE including LXR response element incubated for 20 hrs by luciferase reporter gene assay relative to T0901317
- Type: cell-based
- test_parameters: CV-1
Recorded Efficacy, one value per entry.
Number in %, nothing else.

smiles_string	measured_on	Efficacy [%]
CC(=O)N(C)c1ccc(OCc2ccc(C(F)(F)F)c(O)c2C(=O)OC(C)(C)C)cc1	Oxysterols receptor LXR-beta (Homo sapiens) (UniProt P55055)	76

Qu. Consider the compound `CC(C)(C)OC(=O)c1c(COc2ccc(-c3cccc(CC(=O)O)c3)cc2)ccc(C(F)(F)F)c1O` and give its recorded Efficacy.
Ans. 27

Qu. Note down Efficacy recorded for `CC(C)(C)OC(=O)c1c(COc2ccc(-c3ccc(CC(=O)O)cc3)cc2)ccc(C(F)(F)F)c1O`
Ans. 51

Qu. Retrieve Efficacy measured for `CC(=O)N(C)c1ccc(OCc2ccc(C(F)(F)F)cc2C(=O)OC(C)(C)C)cc1` and print it.
Ans. 28
